B1: Advillin, residues 785 to 819; numbered along this chain, O75366 (parent)
chain: LSEQDFVSVFGITRGQFAALPGWKQLQMKKEKGLF

- Variants of: B1
- procedureSummary: abundance fitness (aPCA) (normalised: wild type 0, dead -1); higher = more abundant; growth selection in yeast, the domain comes from the species named
- conditionParameters: Homo sapiens
Classes by abundance fitness: small value = under -0.3, mid value = from -0.3 up to -0.09, large value = -0.09 and over

# mutationAnnotation, classification
records = [
    ("Q4S", "large value"),
    ("K30H", "mid value"),
    ("E31V", "small value"),
    ("E31L", "small value"),
    ("R14K", "large value"),
    ("G15A", "large value"),
    ("T13D", "mid value"),
    ("F6H", "small value"),
    ("E3P", "mid value"),
]
